assay: 14C assay with IPTG-induced recombinant E. coli cells: 14CO2 captured from [14C]-carboxyl-labeled dicamba; conditions: induced recombinant E. coli cells, [14C]-carboxyl-labeled dicamba, 14CO2 capture
READOUT_LABEL: Dicamba Decarboxylase Activity

64 (protein, listed as Achromobacter piechaudii) MAIQKIDMHAHFFPPITRQEAAALDPVNAPWLRPDADGATGQIMAGEREFRPVDATLWDPALRIEQMDRHGVDVQILCATPIMFGYTYPARPAADWAARMNDLALEHCAYAPSRLKALAQVPLQDLELACQEASRARAAGHLGVQIGNHVGPRDLDDETLVQFLIHCANNDIPVLVHPWDMMTDGRMKKWMLPWLVSMPAETQLGILSLILSGAFERIPRSLKLCFAHGGGSFAYLLGRVDNAWRHRDIIRQDCPQLPSSYTDRFYTDSAVFDPRSLRLLIDVMGEDRVLLGSDYPYPLGEQEVGRLVAHAELVPEVQQKILFRNTMTFFGLQPGLQPGLQS
Low
97 (protein, listed as Sphingobium sp.) MAMMIIDCHGHYTVLPKAHDEWREQQKAAFKAGQPAPPYPEISDDEIRETIEANQLRLIKERGADMTIFSPRASAMAPHVGDQSVAVPWAQACNNLIARVVDLFPETFAGVCMLPQSPEADMTSSIAELERCVNELGFIGCNLNPDPGGGHFKHPPLTDRFWYPFYEKMVELDVPAMIHVSGSCNPAMHATGAYYLAADTIAFMQLLQGNLFADFPTLRFIIPHGGGAVPYHWGRFRGLADMLKQPSLDTLLMNNVFFDTCVYHQPGINLLADVIDNKNILFGSEMVGAVRGIDPTTGHYFDDTKRYIDALDISDQERHAIFEGNTRRVFPRLDAKLKARGL
No
54 (protein, listed as Streptomyces sp.) MAKIIALEEHFSDPAVAKAGAARAQALSPGFAASYSPASGLPYSPSPEVLENLAEKRLADMDAGGITMQVLSGLGAQTVPADVAPALVAGSNDKAAAAVRAHPDRFAAFAALPTAAPEAAVAELDRSINELGFVGTLIMGRTEGEFLDAPRFEPILARAAALKVPVFLHPGVPPREITDSNYAAGLPTGIGTRLQTAAWGWHQETAVHFLHLVHSGVLDRYPGLQFILGHWGEMIPFYLDRVDEALPQRATGLDRSFHEYFRENVYLAPSGMWSQAQLRFCLETVPLERIVFAVDYPFIGNEGAVPFLEKAELPEADKRKIAHENAERLLGL
High
48 (protein, listed as Amycolatopsis mediterranei) MASMKLYGLEEHFVTADVIEAWRRRDPGLAEPMMKWAVASDITPALLDVDGGRIAAMDDAGIDTTVLSLTTPGLQNLDAAEAVALQAPTNDLIAAAVRRHPGRFQGFATLATSAPAAAADELRRAVTELGLNGALVNANSRGRALDAPGFWDIYEAAEDLRAPVYLHPGVPVPAVTEAYYRGFGEPVNSMLATGAFGWHYDAGLTILRMIVAGVFDRFPGLQVILGHWGEVVLFYLDRVAAMDKLTALRRPIAEYFRSNIFITPGGISSHKYLRWSLETVGVERIMYASDYPFNTERAGSARRFLDTAPVDEAGRERIAYRNWEELIAGIRR
High
